# assayed-system: UniProt:P09917
# assay: In vitro inhibition of ionophore stimulated LTB4 release from human peripheral blood leukocytes.
# Assay type: functional
observable: EC50 (nM)

Sample records with EC50:
INSERT INTO assay_data (compound, observable, value) VALUES
  ('O=C(NO)NCCSc1nc2cc(Cl)ccc2s1', 'EC50', 24500),
  ('CN(O)C(=O)CSc1nc2ccccc2s1', 'EC50', 70),
  ('CN(O)C(=O)NCCSc1nc2ccccc2s1', 'EC50', 90),
  ('CN(O)C(=O)/C=C/Sc1nc2ccccc2s1', 'EC50', 130),
  ('CC(C)N(O)C(=O)NCCSc1nc2ccccc2s1', 'EC50', 130);

[P] CCOc1ccc2nc(SCCNC(=O)N(O)C(C)C)sc2c1
[Q] CC(C)N(O)C(=O)NCCSc1nc2cc(Cl)ccc2s1
[R] CC(C)c1ccc2nc(SCCNC(=O)N(C)O)sc2c1
[S] CN(O)C(=O)CCSc1nc2cc(Cl)ccc2s1
[T] CN(O)C(=O)NCCSc1nc2cc(C(F)(F)F)ccc2s1
Ask | # rank by EC50, ascending (min first) // respond by listing labels in the order requested
Reply | S, Q, R, P, T
(S: 20 nM, Q: 70 nM, R: 160 nM, P: 390 nM, T: 3200 nM)

[P] COc1ccc(-n2nc(CCC(=O)N(C)O)cc2-c2ccc(Cl)cc2)cc1 [TEPOXALIN]
[Q] CN(O)C(=O)NCCSc1nc2cccc(Cl)c2s1
Ask | Of P and Q , which carries the smaller reported EC50 figure? Reply briefly: the label of your chosen item.
Reply | P

----------
# assayed-system: Polyunsaturated fatty acid 5-lipoxygenase (Homo sapiens)
# Sequence (P09917 whole entry): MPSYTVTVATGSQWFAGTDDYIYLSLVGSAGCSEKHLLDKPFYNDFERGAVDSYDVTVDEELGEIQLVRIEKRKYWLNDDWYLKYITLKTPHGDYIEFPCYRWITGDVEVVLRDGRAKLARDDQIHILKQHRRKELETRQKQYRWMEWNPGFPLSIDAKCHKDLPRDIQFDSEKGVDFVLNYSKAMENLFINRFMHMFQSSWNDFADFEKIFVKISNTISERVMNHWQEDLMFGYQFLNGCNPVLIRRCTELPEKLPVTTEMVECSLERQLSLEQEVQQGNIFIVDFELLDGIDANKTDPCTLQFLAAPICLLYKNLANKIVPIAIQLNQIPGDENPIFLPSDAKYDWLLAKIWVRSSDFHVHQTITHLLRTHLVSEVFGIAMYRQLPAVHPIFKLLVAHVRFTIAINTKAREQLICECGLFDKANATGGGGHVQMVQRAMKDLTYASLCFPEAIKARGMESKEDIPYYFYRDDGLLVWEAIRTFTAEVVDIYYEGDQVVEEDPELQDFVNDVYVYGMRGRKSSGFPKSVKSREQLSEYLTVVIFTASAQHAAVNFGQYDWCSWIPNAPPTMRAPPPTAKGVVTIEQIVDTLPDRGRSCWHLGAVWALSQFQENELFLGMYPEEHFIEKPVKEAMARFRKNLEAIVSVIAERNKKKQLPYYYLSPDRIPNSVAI
# assay: In vitro inhibition of ionophore stimulated LTB4 release from human peripheral blood leukocytes.
# Type: functional
pEC50: −log10 of the molar value.
observable: pEC50

INSERT INTO assay_data (structure_string, value) VALUES
  ('CN(O)C(=O)NCCSc1nc2cc(Cl)ccc2s1', 7.70),
  ('CN(O)C(=O)NCCCSc1nc2ccccc2s1', 7.35),
  ('CN(O)C(=O)NCSc1nc2ccccc2s1', 5.97);

[P] CC(C)N(O)C(=O)NCCCSc1nc2ccccc2s1
[Q] CN(O)C(=O)CCSc1nc2ccccc2s1
Ask | Of P and Q , which carries the smaller reported pEC50 figure? Reply briefly: the label of your chosen item.
Reply | P

[P] CCOc1ccc2nc(SCCNC(=O)N(C)O)sc2c1
[Q] O=C(NO)NCCSc1nc2ccccc2s1
Ask | Of P and Q , which carries the smaller reported pEC50 figure? Reply briefly: the label of your chosen item.
Reply | Q

----------
# Tested on: Mus musculus
# assay: In vivo 5-Lipoxygenase inhibitory activity by using mouse zymosan peritonitis model
# Type: functional, organism-based
observable: EC50 (mg/kg)

Sample records with EC50:
INSERT INTO assay_data (compound, value) VALUES
  ('CC(c1cc2ccccc2s1)N(O)C(N)=O (configuration not stated) [ZILEUTON]', 1.6),
  ('CN(O)C(=O)NCCSc1nc2ccccc2s1', 41),
  ('CN(O)C(=O)NCCCSc1nc2ccccc2s1', 23);

[A] CN(O)C(=O)NCCSc1nc2cc(Cl)ccc2s1
[B] NC1=NN(c2cccc(C(F)(F)F)c2)CC1 [BW-755C]
[C] COc1ccc(-n2nc(CCC(=O)N(C)O)cc2-c2ccc(Cl)cc2)cc1 [TEPOXALIN]
[D] CN(O)C(=O)NCSc1nc2ccccc2s1
Ask | # rank by EC50, ascending (min first) // respond by listing labels in the order requested
Reply | B, A, C, D
